Measurement target: Gsx2HD I234E (Mus musculus, UniProt P31316 203-264, I234E)
Sequence (P31316 203-264 I234E): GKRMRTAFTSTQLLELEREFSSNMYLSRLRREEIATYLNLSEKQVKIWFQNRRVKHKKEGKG
Protocol details: ITC
pKd: −log10 of the molar value.

| Binder | pKd |
| --- | --- |
| TAATTA consensus monomer site 15mer (dsDNA) DNA 1: TGAGCTAATTAAAGC DNA 2: AGCTTTAATTAGCTC | 7.70 |
